TARGET DESC: T1, human PRLR on cells (human, UniProt P16471 25-622)
T1 sequence: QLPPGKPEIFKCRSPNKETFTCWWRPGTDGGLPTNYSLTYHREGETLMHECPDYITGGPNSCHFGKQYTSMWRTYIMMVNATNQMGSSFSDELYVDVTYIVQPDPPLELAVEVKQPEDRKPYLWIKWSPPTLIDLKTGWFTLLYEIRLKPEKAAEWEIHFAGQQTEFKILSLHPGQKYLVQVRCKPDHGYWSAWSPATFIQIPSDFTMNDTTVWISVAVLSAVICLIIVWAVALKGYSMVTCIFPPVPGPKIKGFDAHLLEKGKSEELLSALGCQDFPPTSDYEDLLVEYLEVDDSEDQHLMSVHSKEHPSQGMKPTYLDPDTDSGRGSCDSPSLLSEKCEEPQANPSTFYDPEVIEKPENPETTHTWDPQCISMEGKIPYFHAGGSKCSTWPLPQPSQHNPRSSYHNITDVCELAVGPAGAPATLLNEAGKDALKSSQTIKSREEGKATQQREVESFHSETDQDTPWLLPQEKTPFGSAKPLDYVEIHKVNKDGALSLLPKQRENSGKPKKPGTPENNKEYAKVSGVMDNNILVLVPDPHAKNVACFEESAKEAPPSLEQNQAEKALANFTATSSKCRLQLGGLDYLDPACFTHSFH
PROCEDURE SUMMARY: cell-based or functional assay
MEASURED QUANTITY: Baf3-hPRLR proliferation IC50 (µg/mL)

- BINDER: "Ab14 (antibody, human IgG1, kappa, V domains shown, humanized from Ab6; G1; also called Ab1 HC.1 & Ab1 LC.1) VH: EVQLVQSGAEVKKPGSSVKVSCKASGYTFTTYWMHWVRQAPGQGLEWMGEIDPSDSYSNYNQKFKDRVTITADKSTSTAYMELSSLRSEDTAVYYCARNGGLGPAWFSYWGQGTLVTVSS VL: DIQMTQSPSSVSASVGDRVTITCKASQYVGTAVAWYQQKPGKAPKLLIYSASNRYTGVPSRFSGSGSGTDFTLTISSLQPEDFATYYCQQYSSYPWTFGGGTKVEIKR"
  MEASURED QUANTITY: "Baf3-hPRLR proliferation IC50"
  SCALE UNIT: "µg/mL"
  ASSAY VALUE: 0.3
